- measured_on: T1, apical domain of cynomolgus CD71 (cynomolgus, UniProt A0A2K5X958 189-383)
- T1 construct: domain: apical domain; also called Cyno apical domain
- protocol_summary: primary ELISA; also: test concentration or dose not given here
observable: RLU (RLU)

CD71-binding FN3 domain of SEQ ID NO: 171 (designed binder) MSLPAPKNLVVSRVTEDSARLSWTAPDAAFDSFEIGYFENLYLGEAIVLTVPGSERSYDLTGLKPGTEYWVQIGGVKGGEWSSPLSAIFTT :: 4.93e+06
CD71-binding FN3 domain of SEQ ID NO: 199 (designed binder) MSLPAPKNLVVSRVTEDSARLSWTAPDAAFDSFEIGYFENLYLGEAIVLTVPGYERSYDLTGLKPGTEYWVQIGGVKGGNWSAPLSAIFTT :: 4.9e+06
